// pIC50 lookup, one value per entry
- assay.target: STAT3 (Homo sapiens, UniProt P40763)
- Construct: To characterize changes in protein levels in whole cell lysates; endogenous in cells
- Sequence (P40763 whole entry): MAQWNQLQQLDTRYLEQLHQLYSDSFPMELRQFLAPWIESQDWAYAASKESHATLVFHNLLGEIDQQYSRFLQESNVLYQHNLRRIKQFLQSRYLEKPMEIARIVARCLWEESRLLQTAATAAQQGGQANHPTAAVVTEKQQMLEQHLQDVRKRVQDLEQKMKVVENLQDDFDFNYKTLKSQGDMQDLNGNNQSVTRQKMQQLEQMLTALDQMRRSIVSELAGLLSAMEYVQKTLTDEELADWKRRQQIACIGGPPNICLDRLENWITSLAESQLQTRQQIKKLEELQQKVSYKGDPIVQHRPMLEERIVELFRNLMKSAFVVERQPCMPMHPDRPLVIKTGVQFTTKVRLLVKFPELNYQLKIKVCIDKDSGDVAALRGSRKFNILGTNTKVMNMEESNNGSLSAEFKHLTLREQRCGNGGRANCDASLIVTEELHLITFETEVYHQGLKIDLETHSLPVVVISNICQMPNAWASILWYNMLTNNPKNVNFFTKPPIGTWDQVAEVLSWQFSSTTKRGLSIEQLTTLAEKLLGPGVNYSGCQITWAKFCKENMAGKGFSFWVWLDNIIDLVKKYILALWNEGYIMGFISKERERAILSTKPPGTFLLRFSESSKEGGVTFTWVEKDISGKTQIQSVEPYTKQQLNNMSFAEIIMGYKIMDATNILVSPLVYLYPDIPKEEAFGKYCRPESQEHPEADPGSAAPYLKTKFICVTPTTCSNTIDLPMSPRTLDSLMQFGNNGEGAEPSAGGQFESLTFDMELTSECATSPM
- experimental.details: IL-6 induced STAT3 phosphorylation, Western blot / densitometry, dBT114 cells
- run.parameters: densitometry of western blots (FIG. 12), read-out: half-maximal inhibitory concentration (IC50) for blocking STAT3 activation
Note on units: pIC50 is unitless, being -log10 of a concentration expressed in mol/L.

Below, each entry is followed by its recorded pIC50 result.
• CNC(=O)COCC(=O)Nc1ccc(Cc2cc(-c3ccc(Br)cc3)n(-c3ccc(S(N)(=O)=O)cc3)n2)cc1 [C3] = 6.17
• NS(=O)(=O)c1ccc(-n2nc(Cc3ccc(NC(=O)COCC(=O)NCCCCCCCNC(=O)COCC(=O)Nc4ccc(Cc5cc(-c6ccc(Br)cc6)n(-c6ccc(S(N)(=O)=O)cc6)n5)cc4)cc3)cc2-c2ccc(Br)cc2)cc1 [C10] = 6.68

input: Reported pIC50, compound CC(C)CCc1cc(-c2ccc(Br)cc2)n(-c2ccc(S(N)(=O)=O)cc2)n1 [C6] : ____
output: 4.87

src = patent US10138208B2
